Test system: Tumor Cells
Assay notes: Cell Mat assay, cell growth inhibition, tumor cells (methods of WO 95/10516)
Format: cell-based
Measurement conditions: read-out: Cell Growth Inhibition MAT Assay Tumor Cells IC50 in µM
Test readout: IC50 (µM)
Give your result in µM as a bare value.

stdin: State the recorded IC50 for this entry: CCCC[C@H]1CN(C2c3ccc(Cl)cc3CCc3cc(Br)cnc32)CCN1C(=O)Cc1cc[n+]([O-])cc1 (stereo partly shown)
stdout: 1.6

###

# maps each entry to its IC50
Target desc: farnesyl protein transferase (Homo sapiens, UniProt P49354+P49356)
Assay notes: FPT inhibition, in vitro enzyme assay (SPA, transfer of [3H]farnesyl to biotinylated Ras-peptide; or methods of WO 95/10516)
Measurement conditions: values given as ranges

• N[C@@H](CS)CN1CCN(C2c3ccc(Cl)cc3CCc3cc(Br)cnc32)CC1 (stereo partly drawn) = > 100 µM
• CN(Cc1ccccc1[N+](=O)[O-])C(=O)C1CN(C2c3ccc(Cl)cc3CCc3cc(Br)cnc32)CCN1C(=O)Cc1cccnc1 (stereo not drawn) = 10 to 100 µM

stdin: Item N[C@@H](CS)CN1CCC(=C2c3ccc(Cl)cc3CCc3cc(Br)cnc32)CC1 [EX 56A] has what recorded IC50?
stdout: > 100 µM

These entries and their values trace back to patent EP0819121B1.
